All values here come from PubChem BioAssay (NCI).

# System: SK-MEL-2 melanoma
# measurement.description: NCI-60 one-dose screen, 48 h (100 = growth as untreated, 0 = no growth, -100 = all killed)
# measurement.parameters: 10 µM unless noted
About 83,000 compounds went through this panel and 20% of them were active in at least one assay; those are over-represented in the sample as a whole.
I'd appreciate it if you could supply growth values for the items below.
One number for each entry, in %.

# smiles.text, growth, %
rows = [
    ("O=C(N/N=C/C[C@@H]1[C@@H](/C=C/[C@@H](O)COc2cccc(Cl)c2)[C@H](O)C[C@@H]1O)c1ccncc1", 102),
    ("COc1ccc2[nH]c(=O)c(/C=C/C(=O)/C=C/c3ccc(O)c(OC)c3)cc2c1", 78.3),
    ("COc1ccc(-n2cc(-c3ccc(Cl)c(Cl)c3)[nH]c2=O)cc1OC", 97.7),
    ("COc1cc(F)c(-c2nc3c(C)cccc3n2Cc2c(F)cccc2F)c(F)c1", 93.6),
    ("Cc1c(Cl)cccc1NC(=O)c1sc2nc3c(cc2c1N)CCCCCC3", 11.8),
    ("O=[N+]([O-])c1ccc(Oc2ccc(-c3ccccc3)cc2)cc1", 103),
    ("CCCn1c(N)c(C(N)=O)sc1=S", 93.3),
    ("CC1=C/C(=N\\N=C2/C=C(C)CC(C)(C)C2)CC(C)(C)C1", 107),
]

For each entry beneath this line, provide reported growth.
1. CCCn1cc(/C=N\N=C2\C(=O)Nc3ccc(C)cc32)c2ccccc21
2. Cc1cc(O)cc(O)c1N=NC1=NCCS1

1. 35.1
2. 98.3
